- Measured Target: WEE1 (Homo sapiens, UniProt P30291+Q96SW2)
- Construct: C-terminal ePL-tagged (DiscoverX, Fremont, CA) full-length WEE1 expression construct; expressed in transfected cells; host or cells: LentiX-HEK293T (Invitrogen), lentivirally transduced; the cells also over-express GSPT1-GN
- Sequence (P30291 whole entry): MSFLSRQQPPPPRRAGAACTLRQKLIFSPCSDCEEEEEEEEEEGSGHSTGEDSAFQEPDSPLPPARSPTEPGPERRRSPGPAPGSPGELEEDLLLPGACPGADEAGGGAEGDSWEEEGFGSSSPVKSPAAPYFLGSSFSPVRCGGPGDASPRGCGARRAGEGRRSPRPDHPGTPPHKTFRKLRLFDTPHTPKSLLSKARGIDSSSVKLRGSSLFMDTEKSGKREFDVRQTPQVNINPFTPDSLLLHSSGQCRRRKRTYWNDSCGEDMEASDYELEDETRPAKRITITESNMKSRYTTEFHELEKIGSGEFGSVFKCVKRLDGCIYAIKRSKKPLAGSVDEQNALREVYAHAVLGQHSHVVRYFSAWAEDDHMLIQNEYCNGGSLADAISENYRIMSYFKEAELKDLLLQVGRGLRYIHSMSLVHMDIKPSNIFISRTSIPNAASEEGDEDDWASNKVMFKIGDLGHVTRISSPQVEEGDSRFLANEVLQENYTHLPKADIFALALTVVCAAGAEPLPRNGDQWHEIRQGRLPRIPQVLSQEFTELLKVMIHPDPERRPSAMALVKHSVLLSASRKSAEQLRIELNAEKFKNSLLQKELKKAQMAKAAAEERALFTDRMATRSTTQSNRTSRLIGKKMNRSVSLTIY
- Sequence (Q96SW2 whole entry): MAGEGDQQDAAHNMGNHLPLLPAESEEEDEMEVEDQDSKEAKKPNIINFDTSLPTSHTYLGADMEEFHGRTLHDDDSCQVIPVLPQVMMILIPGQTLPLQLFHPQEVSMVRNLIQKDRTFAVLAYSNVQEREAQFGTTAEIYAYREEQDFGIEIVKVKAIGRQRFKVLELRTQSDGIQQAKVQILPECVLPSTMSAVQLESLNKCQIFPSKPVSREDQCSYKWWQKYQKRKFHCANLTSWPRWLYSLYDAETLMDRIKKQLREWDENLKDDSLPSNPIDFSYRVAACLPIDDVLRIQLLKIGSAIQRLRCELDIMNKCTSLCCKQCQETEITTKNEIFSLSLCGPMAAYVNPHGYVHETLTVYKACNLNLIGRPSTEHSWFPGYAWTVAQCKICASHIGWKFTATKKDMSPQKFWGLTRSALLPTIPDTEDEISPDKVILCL
- Sequence (Q16531 whole entry partner): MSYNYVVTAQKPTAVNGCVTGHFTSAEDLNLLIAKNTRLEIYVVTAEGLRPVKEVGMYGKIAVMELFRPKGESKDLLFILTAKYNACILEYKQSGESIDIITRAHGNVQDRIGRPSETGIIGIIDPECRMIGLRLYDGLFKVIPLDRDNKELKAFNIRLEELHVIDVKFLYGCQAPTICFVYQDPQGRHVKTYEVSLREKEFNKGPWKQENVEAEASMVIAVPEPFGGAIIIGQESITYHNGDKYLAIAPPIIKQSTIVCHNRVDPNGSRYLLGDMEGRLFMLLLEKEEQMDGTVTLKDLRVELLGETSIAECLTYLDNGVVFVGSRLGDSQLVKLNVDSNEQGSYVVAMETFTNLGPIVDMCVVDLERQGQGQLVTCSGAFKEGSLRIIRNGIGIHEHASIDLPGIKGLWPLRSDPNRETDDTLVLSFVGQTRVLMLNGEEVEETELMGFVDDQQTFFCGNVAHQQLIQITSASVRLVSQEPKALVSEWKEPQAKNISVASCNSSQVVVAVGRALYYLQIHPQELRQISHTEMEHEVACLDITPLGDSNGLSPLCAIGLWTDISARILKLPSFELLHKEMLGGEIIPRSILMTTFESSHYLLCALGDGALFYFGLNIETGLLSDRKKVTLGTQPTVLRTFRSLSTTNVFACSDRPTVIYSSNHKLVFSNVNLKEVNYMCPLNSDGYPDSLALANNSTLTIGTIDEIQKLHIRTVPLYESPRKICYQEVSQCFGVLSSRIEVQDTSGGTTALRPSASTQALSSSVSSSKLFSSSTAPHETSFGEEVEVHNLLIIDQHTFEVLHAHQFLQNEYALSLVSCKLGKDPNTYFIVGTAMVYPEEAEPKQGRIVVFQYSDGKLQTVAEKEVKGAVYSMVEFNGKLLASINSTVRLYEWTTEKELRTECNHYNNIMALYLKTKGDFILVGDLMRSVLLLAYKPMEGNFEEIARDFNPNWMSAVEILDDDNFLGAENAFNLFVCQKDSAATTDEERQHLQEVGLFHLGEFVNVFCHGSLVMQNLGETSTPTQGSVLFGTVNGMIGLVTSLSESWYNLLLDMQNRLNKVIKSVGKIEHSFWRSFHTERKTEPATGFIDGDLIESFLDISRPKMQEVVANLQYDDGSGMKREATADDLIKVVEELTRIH
- Experiment Notes: WEE1-ePL degradation assay (293T-LentiX, InCELL Hunter luminescence, 4 hr)
- Type: cell-based
- Condition Parameters: lower limit of fit, % of DMSO control signal remaining; 4 hr
Result Type: 293T-LentiX WEE1-ePL Degradation 4 hr YMin (%)
Return type: number; implicit unit %.

{"Compound": "COC[C@@H]1CN(Cc2cc(F)c3nc(N4CCN(C(C)=O)C5(CC5)C4)ccc3c2)C[C@H]1Oc1ccc2c(c1)CN([C@H]1CCC(=O)NC1=O)C2=O", "Measurement Unit": "%", "Reported Value": 28.7}
{"Compound": "COC[C@@H]1CN(Cc2cc3ccc(N4CCOCC4)c(F)c3cn2)C[C@H]1Oc1ccc2c(c1)CN([C@H]1CCC(=O)NC1=O)C2=O", "Measurement Unit": "%", "Reported Value": 22.9}
{"Compound": "COC[C@@H]1CN(Cc2ccc3nc(N4CCN(C5COC5)CC4)ccc3c2)C[C@H]1Oc1ccc2c(c1)CN([C@H]1CCC(=O)NC1=O)C2=O", "Measurement Unit": "%", "Reported Value": 21.3}

Query: Look at this compound and give its reported 293T-LentiX WEE1-ePL Degradation 4 hr YMin (%). O=C(O)CC(CCO)c1ccc2cc(CN3CC[C@H](Oc4ccc5c(c4)CN([C@H]4CCC(=O)NC4=O)C5=O)C3)cc(F)c2n1 (relative stereo)
Response: 39.0

Query: May I ask what 293T-LentiX WEE1-ePL Degradation 4 hr YMin (%) has been recorded for COC[C@@H]1CN(Cc2cc(F)c3nc(C45C6C7C4C4C5C6C74C(C)(C)O)ccc3c2)C[C@H]1Oc1ccc2c(c1)CN([C@H]1CCC(=O)NC1=O)C2=O (stereo partly drawn) ?
Response: 18.7

Query: I would be grateful if you could share the reported 293T-LentiX WEE1-ePL Degradation 4 hr YMin (%) for COC[C@@H]1CN(Cc2cc(F)c3nc(N4CCN(C(C)=O)C5(COC5)C4)ccc3c2)C[C@H]1Oc1ccc2c(c1)CN([C@H]1CCC(=O)NC1=O)C2=O .
Response: 21.9

---

- Measured Target: WEE1 (Homo sapiens, UniProt P30291+Q96SW2)
- Construct: C-terminal ePL-tagged (DiscoverX, Fremont, CA) full-length WEE1 expression construct; expressed in transfected cells; host or cells: LentiX-HEK293T (Invitrogen), lentivirally transduced; the cells also over-express GSPT1-GN
- Experiment Notes: WEE1-ePL degradation assay (293T-LentiX, InCELL Hunter luminescence, 4 hr)
- Format: cell-based
- Condition Parameters: lower limit of fit, % of DMSO control signal remaining; 4 hr
Result Type: 293T-LentiX WEE1-ePL Degradation 4 hr YMin (%)
Numbers only; they are read as %.

{"Molecule": "COC[C@@H]1CN(Cc2cc3ccc(C4CCC(C(C)(C)O)CC4)cc3cn2)C[C@H]1Oc1ccc2c(c1)CN([C@H]1CCC(=O)NC1=O)C2=O (relative stereo)", "Measured Target": "WEE1 (Homo sapiens, UniProt P30291+Q96SW2)", "Reported Value": 28.0}

Query: Data request, read-out 293T-LentiX WEE1-ePL Degradation 4 hr YMin (%), for COC[C@@H]1CN(Cc2cc(F)c3nc(N4CCC45CCOCC5)ccc3c2)C[C@H]1Oc1ccc2c(c1)CN([C@H]1CCC(=O)NC1=O)C2=O
Response: 27.3

Query: Suppose we examine the molecule COC[C@@H]1CN(Cc2cc3ccc(N4CCN(CC(F)(F)F)CC4)cc3cn2)C[C@H]1Oc1ccc2c(c1)CN([C@H]1CCC(=O)NC1=O)C2=O ; what 293T-LentiX WEE1-ePL Degradation 4 hr YMin (%) value has been reported?
Response: 31.6

Query: Which 293T-LentiX WEE1-ePL Degradation 4 hr YMin (%) is reported for this molecule? COC[C@@H]1CN(Cc2cc(F)c3nc(C4CCCN4C)ccc3c2)C[C@H]1Oc1ccc2c(c1)CN([C@H]1CCC(=O)NC1=O)C2=O (relative stereo)
Response: 32.7

Query: Look up 293T-LentiX WEE1-ePL Degradation 4 hr YMin (%): O=C1CC[C@H](N2Cc3cc(O[C@@H]4CN(Cc5cc(F)c6ncc(N7CCOCC7)cc6c5)C[C@H]4COC(F)(F)F)ccc3C2=O)C(=O)N1
Response: 25.3

Query: Field request: 293T-LentiX WEE1-ePL Degradation 4 hr YMin (%) | item: COC[C@@H]1CN(Cc2cc(F)c3nc(C(=O)N(C)C4CCOCC4)ccc3c2)C[C@H]1Oc1ccc2c(c1)CN([C@H]1CCC(=O)NC1=O)C2=O
Response: 27.5

Query: Param item = COC[C@@H]1CN(Cc2cc(F)c3nc(C4CC(C)OC(C)C4)ccc3c2)C[C@H]1Oc1ccc2c(c1)CN([C@H]1CCC(=O)NC1=O)C2=O (relative stereo) ; retrieve measured 293T-LentiX WEE1-ePL Degradation 4 hr YMin (%).
Response: 27.2

Query: I am curious: what 293T-LentiX WEE1-ePL Degradation 4 hr YMin (%) value has been reported for COC[C@@H]1CN(Cc2cc3ccc(N4CCN(C(C)=O)C5(COC5)C4)cc3cn2)C[C@H]1Oc1ccc2c(c1)CN([C@H]1CCC(=O)NC1=O)C2=O ?
Response: 32.2
